# Measured On: p70 S6 kinase (S6K1) (Homo sapiens, UniProt P23443)
# Sequence (P23443 24-525): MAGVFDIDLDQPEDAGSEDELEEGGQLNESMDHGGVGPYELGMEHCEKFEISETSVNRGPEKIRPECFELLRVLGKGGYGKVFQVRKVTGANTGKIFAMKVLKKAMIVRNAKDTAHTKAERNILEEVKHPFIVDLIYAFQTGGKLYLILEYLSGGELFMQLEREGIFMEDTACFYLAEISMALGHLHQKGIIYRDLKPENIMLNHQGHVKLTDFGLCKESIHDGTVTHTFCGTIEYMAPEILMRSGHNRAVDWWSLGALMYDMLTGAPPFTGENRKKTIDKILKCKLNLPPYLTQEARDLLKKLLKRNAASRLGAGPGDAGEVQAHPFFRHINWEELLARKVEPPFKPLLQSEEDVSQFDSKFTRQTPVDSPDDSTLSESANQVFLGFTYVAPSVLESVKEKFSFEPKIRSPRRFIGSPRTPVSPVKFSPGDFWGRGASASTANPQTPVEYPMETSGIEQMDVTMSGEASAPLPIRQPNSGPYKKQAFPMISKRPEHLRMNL
# Experiment: in vitro kinase assay with recombinant S6K1, peptide substrate and […] ATP
pIC50: −log10 of the molar value.
Consider the following compounds and their measured pIC50 readings.
Measured Endpoint: pIC50

{"columns": ["Compound", "Measured Endpoint", "Result"],
 "data": [
  ["C/C(O)=C(\\C#N)C(=O)Nc1ccc(C(F)(F)F)cc1 [A77 1726]", "pIC50", "~4.10"],
  ["Cc1oncc1C(=O)Nc1ccc(C(F)(F)F)cc1 [leflunomide]", "pIC50", "~4.26"]
]}
